B1: LINE1-full (parent)
chain: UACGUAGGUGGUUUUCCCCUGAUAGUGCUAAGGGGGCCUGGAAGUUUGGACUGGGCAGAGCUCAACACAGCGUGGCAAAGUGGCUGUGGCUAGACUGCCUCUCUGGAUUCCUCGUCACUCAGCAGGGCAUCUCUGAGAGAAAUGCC

# Variants of: B1
# METHOD DESCRIPTION: self-cleavage, relative activity (ratio to wild type); higher = more cleavage; in vitro, sequencing; the parent is a self-cleaving ribozyme
// label = condition met if self-cleavage is not less than 1, otherwise condition not met

Reference set (5 entries):
U85A U104G = condition not met
A77G C98G = condition not met
C71G A77G = condition not met
C120A A140G = condition met
G8A G135A = condition met

Turning to the following variant.
Item A77U A94G with self-cleavage of 1 or above?
condition not met
